Experiment: Plasma pharmacokinetics of metformin in rats after a single oral dose, alone or with olaparib (HPLC-UV, non-compartmental)
Format: in vivo, Wistar rats
Conditions: male, Wistar, rat, plasma, oral, 100 mg/kg, t 0.083 h; IIMET (metformin alone); group mean; read-out: Cmet, S (group mean)
readout.name: concentration at 0.083 h (ng/mL)
One number for each entry, in ng/mL.

Inquiry: Item CN(C)C(=N)N=C(N)N : provide concentration at 0.083 h
Reply text: 146

----------
Assay: Plasma pharmacokinetics of olaparib in rats after a single oral dose, alone or with metformin (UPLC-MS/MS, non-compartmental)
Type: in vivo, Wistar rats
Settings: male, Wistar, rat, plasma, oral, t 0.750 h; IMET+OLA (metformin and olaparib); group mean; read-out: Cave_ola
From the text: All applicable international, national, and/or institutional guidelines for the care and use of animals were followed. […] The maximum plasma concentration (Cmax) and the time to reach the Cmax (tmax) were obtained directly from the measured values. […]
readout.name: concentration at 0.75 h (ng/mL)
Give bare numbers, in ng/mL.

Inquiry: Item O=C(c1cc(Cc2n[nH]c(=O)c3ccccc23)ccc1F)N1CCN(C(=O)C2CC2)CC1 : provide concentration at 0.75 h
Reply text: 7770
